Hello, the source for this data is patent US20200024330A1, in case you need it.

- tested-on: HIV-1 IAVI-C3 envelope protein (Env) on pseudovirus (HIV-1 isolate IAVI-C3)
- method-description: cell-based or functional assay

| binder | units-label | limit-qualifier | IC50 (µg/mL), pseudovirus neutralization |
| --- | --- | --- | --- |
| 1443_C16 (PG16) (TCN-116) (antibody, V domains shown) VH: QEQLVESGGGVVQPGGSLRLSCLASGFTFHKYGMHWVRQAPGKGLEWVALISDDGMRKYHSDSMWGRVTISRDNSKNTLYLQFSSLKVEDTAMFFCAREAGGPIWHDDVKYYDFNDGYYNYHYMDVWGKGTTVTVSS VL: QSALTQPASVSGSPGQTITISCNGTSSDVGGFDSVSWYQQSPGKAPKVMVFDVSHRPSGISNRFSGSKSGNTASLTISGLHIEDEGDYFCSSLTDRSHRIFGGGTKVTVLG | µg/mL | = | 14.8 |
| 1456_P20 (PG20) (antibody, human IgG1, kappa, V domains shown) VH: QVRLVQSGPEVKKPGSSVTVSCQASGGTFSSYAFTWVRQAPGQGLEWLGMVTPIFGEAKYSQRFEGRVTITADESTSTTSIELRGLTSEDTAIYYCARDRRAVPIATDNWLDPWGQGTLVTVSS VL: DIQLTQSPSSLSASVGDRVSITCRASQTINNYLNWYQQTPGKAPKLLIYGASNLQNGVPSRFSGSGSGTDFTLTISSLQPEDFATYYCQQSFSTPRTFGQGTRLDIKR | µg/mL | > | 50 |
| 1496_C09 (PG9) (TCN-109) (antibody, V domains shown) VH: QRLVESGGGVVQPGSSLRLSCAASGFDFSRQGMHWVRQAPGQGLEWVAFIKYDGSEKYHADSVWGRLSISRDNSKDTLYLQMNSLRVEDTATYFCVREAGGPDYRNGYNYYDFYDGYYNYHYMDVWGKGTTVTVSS VL: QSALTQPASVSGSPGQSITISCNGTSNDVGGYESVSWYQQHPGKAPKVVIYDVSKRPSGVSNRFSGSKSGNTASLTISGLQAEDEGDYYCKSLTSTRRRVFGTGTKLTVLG | µg/mL | = | 12.9 |
| 1495_C14 (PGC14) (antibody, human IgG1, lambda, V domains shown) VH: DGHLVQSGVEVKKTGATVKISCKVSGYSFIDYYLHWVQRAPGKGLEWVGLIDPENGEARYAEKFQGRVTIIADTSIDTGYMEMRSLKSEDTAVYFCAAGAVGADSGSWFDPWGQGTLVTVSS VL: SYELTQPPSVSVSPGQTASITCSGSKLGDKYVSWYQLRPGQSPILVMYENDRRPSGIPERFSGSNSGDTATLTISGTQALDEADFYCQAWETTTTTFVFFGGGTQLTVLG | µg/mL | = | 9.5 |
| 1460_G14 (PGG14) (antibody, human IgG1, kappa, V domains shown) VH: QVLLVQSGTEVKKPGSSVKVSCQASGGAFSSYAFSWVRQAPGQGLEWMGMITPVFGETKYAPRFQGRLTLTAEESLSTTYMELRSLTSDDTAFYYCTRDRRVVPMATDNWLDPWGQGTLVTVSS VL: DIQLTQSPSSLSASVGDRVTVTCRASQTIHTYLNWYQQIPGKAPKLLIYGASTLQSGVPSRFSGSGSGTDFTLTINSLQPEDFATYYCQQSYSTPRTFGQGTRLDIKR | µg/mL | > | 50 |
